Data origin: PubChem BioAssay (NCI)

A collection of compounds and their measured TGI
Test system: MDA-MB-231 breast
Test: NCI tumour cell line growth inhibition, 48 h
REPORTED ENDPOINT: TGI (µM)

In [3]: df
Out[3]:
                                   compound  reading_qualifier  measured_result
0  CCOC(=O)c1nc2ccc(C(F)(F)F)cc2nc1Nc1ccc(OC)cc1                  =             50.6
1  C=CC(=O)Nc1cc2c(Nc3ccc(F)c(Cl)c3)ncnc2cc1C#CC(C)(C)N1CCN(C)CC1                  =             2.73
2   O=[N+]([O-])c1cccc2nccc(NCCN3CCOCC3)c12                  =             71.1
3  CC1=NN(c2nc(N)nc(/C(C#N)=C\c3ccc(-c4ccc([N+](=O)[O-])cc4)o3)n2)C(C)(C)C1                  >              100
4  CCOC1Oc2ccc(C)cc2C(=O)/C1=C\Nc1ccc(S(N)(=O)=O)cc1 (centres undefined)                  =             35.5
5  COc1cc2cc(Oc3cccc(NC(=O)Nc4cc(C(F)(F)F)cc(C(F)(F)F)c4)c3)c(C)nc2cc1OC                  =             2.49
6  COc1ccccc1N/C(SCc1ccccc1)=C(/C(Cl)=C(Cl)Cl)[N+](=O)[O-]                  =             48.4
7  CN1CCC(C(O)(c2ccccc2)c2ccc(Br)cc2)CC1 (centres undefined)                  =             48.8
8  Clc1ccc(CN2CCCN(Cc3ccc(Cl)cc3)C2c2cc3ccccc3c3ccccc23)cc1                  >              100

====

System: HCT-116 colon
Test: NCI tumour cell line growth inhibition, 48 h

COMPOUND	TGI
COc1cc2cc(C(=O)N3CC(CCl)c4ccc([N+](C)(C)Cc5ccccc5[N+](=O)[O-])cc43)[nH]c2c(OC)c1OC (centres undefined)	> 100 µM
COCC(C(=O)OC1C/C=C/C=C/C(=O)OC(C(C)C(O)C(C)CCC(OC(=O)C(C)N(C)C)C(C)C(OC(C)=O)C(C)/C=C/N(C)C=O)C/C=C/C(OC)CC(C)C/C=C(\C)C(OC)CCC(C)C(O)C1C)N(C)C (centres undefined)	0.00687 µM
CC(=O)Nc1cccc(N2C(=O)/C(=C\c3cccc(Oc4ccccc4)c3)SC2c2ccccc2)c1 (centres undefined)	> 100 µM
Cc1ccc(-c2cc(-c3ccccc3)c(C#N)c(=O)[nH]2)cc1	> 100 µM
C=C1C(O)C2(O)OCC34C(CC5C(C)=CC(=O)C(O)C5(C)C23)OC(=O)C(OC(=O)C/C=C/CCCCCCCC)C14 (centres undefined)	0.116 µM
CCc1n[nH]c(=O)n1/N=C(\C)c1ccccc1	> 100 µM
COC(=O)c1ccc2c(c1)CC1(C2)Cc2ccccc2C1=O (centres undefined)	69.4 µM
O=C1Cc2cn[nH]c2-c2ccccc2N1	> 83.5 µM
C1=CC2CCC1CN2CCC1CNc2ccccc21 (centres undefined)	> 100 µM
Cc1ccc2nc(NS(=O)(=O)c3cc(C)c(Cl)cc3S)[nH]c2c1	> 100 µM
CN(C)c1ccc(C(O)C2=CC(=O)c3ccccc3C2=O)cc1 (centres undefined)	37 µM
O=C(Nc1ccccc1)Oc1ccc(C(=S)Nc2ccc(Br)cc2)cc1	37.2 µM
Nc1nc(SCC(=O)c2ccc(Br)cc2)c2[nH]cnc2n1	> 100 µM
COc1ccc(-c2csc(Nc3cccc(-c4csc(C)n4)c3)n2)cc1	> 50 µM
CNC(=O)OCc1nc(SC)n(C)c1COC(=O)NC	372 µM
COC(=O)c1c(O)ccc2c1c1c(n2Cc2cc(OC)cc(OC)c2)C(=O)c2ccccc2C1=O	15.1 µM
CC(=O)c1ccc(Nc2c3ccccc3nc3occc23)cc1	> 34.7 µM
CN(C)CCN1CCc2c([nH]c3ccccc23)C1c1cccnc1 (centres undefined)	> 100 µM
COc1ccc2nc3cc(Cl)ccc3c(NCCCN3CCN(CCCNc4ccc5nnn6c7ccccc7c(=O)c4c56)CC3)c2c1	> 20.2 µM
CC(Oc1ccc(Cl)cc1Cl)C(=O)NN1C(=O)CC(=O)N(c2ccccc2)C1=S (centres undefined)	> 100 µM
COc1cc(NC2CCCCC2O)c2nc(-c3ccc(Cl)cc3)ccc2c1 (centres undefined)	> 100 µM
CCCCCCCCCCCCCCCc1nc(=S)[nH][nH]1	> 100 µM
CC1(C)OC[C@@H]([C@@]2(COC(c3ccccc3)(c3ccccc3)c3ccccc3)CC=CC(=O)O2)O1	> 100 µM
O=C1CCC(=O)N1Sc1ccccc1	> 100 µM
